TESTED_SYSTEM: Dual specificity protein kinase CLK1 (Homo sapiens, UniProt P49759)
Sequence (P49759 whole entry): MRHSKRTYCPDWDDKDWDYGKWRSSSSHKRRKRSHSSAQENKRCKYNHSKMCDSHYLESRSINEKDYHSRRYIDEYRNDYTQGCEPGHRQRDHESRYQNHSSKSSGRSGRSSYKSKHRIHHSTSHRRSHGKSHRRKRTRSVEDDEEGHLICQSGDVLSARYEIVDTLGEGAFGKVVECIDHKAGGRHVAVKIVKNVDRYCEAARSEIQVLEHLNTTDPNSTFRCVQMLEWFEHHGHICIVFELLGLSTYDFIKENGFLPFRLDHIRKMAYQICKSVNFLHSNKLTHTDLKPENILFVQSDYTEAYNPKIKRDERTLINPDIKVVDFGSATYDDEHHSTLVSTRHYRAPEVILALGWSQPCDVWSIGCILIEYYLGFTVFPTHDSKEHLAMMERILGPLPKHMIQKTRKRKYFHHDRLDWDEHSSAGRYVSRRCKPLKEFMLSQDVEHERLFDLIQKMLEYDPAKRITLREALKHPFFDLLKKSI
MEASUREMENT_NOTES: Inhibition of human recombinant GST-tagged CLK1 expressed in Escherichia coli using GRSRSRSRSRSR as substrate and [gamma32P]ATP after 30 mins by scintillation counting
The entries below are paired with their reported IC50.

Nc1ncnc2c1sc1ncccc12 ... 0.68 µM
Fc1cc(Br)ccc1Nc1ncnc2c1sc1ncccc12 ... 2.1 µM
c1cnc2c(c1)sc1c(Nc3ccc4c(c3)OCCO4)ncnc12 ... > 10 µM
Nc1ncnc2c1sc1cccnc12 ... 5.2 µM

Problem: Form field: reported IC50 of c1ccc(Nc2ncnc3c2sc2ncccc23)cc1
Solution: 4.5 µM

----------
TESTED_SYSTEM: Dual specificity protein kinase CLK1 (Homo sapiens)
MEASUREMENT_NOTES: Inhibition of human recombinant GST-tagged CLK1 expressed in Escherichia coli using GRSRSRSRSRSR as substrate and [gamma32P]ATP after 30 mins by scintillation counting
pIC50: −log10 of the molar value.
The entries below are paired with their reported pIC50.

Recorded pIC50, per entry:
COc1ccc(Nc2ncnc3c2sc2ncccc23)cc1 ... 5.48
COc1cc(Nc2ncnc3c2sc2cccnc23)cc(OC)c1OC ... < 5.00
COc1cc(Nc2ncnc3c2sc2ncccc23)cc(OC)c1OC ... < 5.00
O=[N+]([O-])c1cc(Nc2ncnc3c2sc2ncccc23)ccc1O ... < 5.00
c1cnc2c(c1)sc1c(Nc3ccc4c(c3)OCO4)ncnc12 ... < 5.00

Problem: Form field: reported pIC50 of COc1cc(Nc2ncnc3c2sc2cccnc23)cc(OC)c1
Solution: < 5.00

----------
TESTED_SYSTEM: UniProt P49759
MEASUREMENT_NOTES: Inhibition of human recombinant GST-tagged CLK1 expressed in Escherichia coli using GRSRSRSRSRSR as substrate and [gamma32P]ATP after 30 mins by scintillation counting
pIC50: −log10 of the molar value.
REPORTED_METRIC: pIC50

COc1cc(Nc2ncnc3c2sc2ncccc23)cc(OC)c1 ... < 5.00
COc1ccc(Nc2ncnc3c2sc2cccnc23)cc1OC ... < 5.00
c1ccc(Nc2ncnc3c2sc2cccnc23)cc1 ... < 5.00
c1cnc2sc3c(Nc4ccc5c(c4)OCCO5)ncnc3c2c1 ... < 5.00

Problem: Form field: reported pIC50 of O=[N+]([O-])c1cc(Nc2ncnc3c2sc2cccnc23)ccc1O
Solution: < 5.00

----------
TESTED_SYSTEM: UniProtKB P49759
MEASUREMENT_NOTES: Inhibition of human recombinant GST-tagged CLK1 expressed in Escherichia coli using GRSRSRSRSRSR as substrate and [gamma32P]ATP after 30 mins by scintillation counting
The entries below are paired with their reported pIC50.
Scale for pIC50: -log10 of concentration given in mol/L; no unit attached.

COc1ccc(Nc2ncnc3c2sc2ncccc23)cc1OC ... 5.47

Problem: Form field: reported pIC50 of c1cnc2sc3c(Nc4ccc5c(c4)OCO5)ncnc3c2c1
Solution: 5.66
